molecular target: D(1A) dopamine receptor (Rattus norvegicus)
Sequence (P18901 whole entry): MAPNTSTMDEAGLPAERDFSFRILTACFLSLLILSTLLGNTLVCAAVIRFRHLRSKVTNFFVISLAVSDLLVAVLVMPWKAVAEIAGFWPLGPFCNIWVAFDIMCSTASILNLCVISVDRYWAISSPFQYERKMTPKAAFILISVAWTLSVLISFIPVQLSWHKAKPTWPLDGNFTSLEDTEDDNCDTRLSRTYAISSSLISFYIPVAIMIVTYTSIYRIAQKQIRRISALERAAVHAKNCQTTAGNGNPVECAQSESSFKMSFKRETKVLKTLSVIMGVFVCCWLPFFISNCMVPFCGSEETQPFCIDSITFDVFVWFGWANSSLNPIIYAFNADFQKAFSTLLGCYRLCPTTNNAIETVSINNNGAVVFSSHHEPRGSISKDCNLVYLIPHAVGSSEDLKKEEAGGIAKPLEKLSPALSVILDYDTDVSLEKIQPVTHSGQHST
measuredEndpoint: Ki (µM)
Number in µM, nothing else.

Ki on D(1A) dopamine receptor (Rattus norvegicus) for CCCN1Cc2ccccc2[C@@H]2c3cc(O)c(O)cc3CC[C@H]21 [N-n-propyldihydrexidine, N-Pr-DHX] is 0.32
